Protein target, amino acids: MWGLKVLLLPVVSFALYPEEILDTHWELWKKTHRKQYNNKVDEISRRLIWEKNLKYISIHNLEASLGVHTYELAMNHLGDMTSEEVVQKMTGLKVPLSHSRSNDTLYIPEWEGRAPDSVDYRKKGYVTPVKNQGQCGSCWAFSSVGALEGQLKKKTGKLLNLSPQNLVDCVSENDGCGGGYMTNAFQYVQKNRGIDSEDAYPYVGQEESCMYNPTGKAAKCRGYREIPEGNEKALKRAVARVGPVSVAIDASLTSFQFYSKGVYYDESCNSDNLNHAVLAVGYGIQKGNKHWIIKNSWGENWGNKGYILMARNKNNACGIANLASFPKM
result type: log10 of IC50 (log10 of the value in nM)

given smiles	observed
Cn1nc(C(C)(C)C)cc1C(=O)N[C@@H](Cc1cccc(Cl)c1)C(=O)NCC#N	3.50
N#CCNC(=O)[C@H](Cc1cccc(-c2nnco2)c1)NC(=O)c1ccccc1	3.10
Cn1nc(C(C)(C)C)cc1C(=O)N[C@@H](Cc1cccc(-c2nnc(CO)o2)c1)C(=O)NCC#N	2.00
Cc1nnc(-c2cccc(C[C@H](NC(=O)c3cc(C(C)(C)C)nn3C)C(=O)NCC#N)c2)o1	1.80
Cn1nc(C(C)(C)C)cc1C(=O)N[C@@H](Cc1cccc(-c2nnco2)c1)C(=O)NCC#N	2.10
N#CCNC(=O)[C@H](Cc1cccc(Cl)c1)NC(=O)c1ccccc1	3.50
N#CCNC(=O)[C@H](Cc1cccc(-c2nncs2)c1)NC(=O)c1ccccc1	2.80

###

system name: UniProtKB P07858
pIC50: −log10 of the molar value.
Parameter: pIC50. Scope: all listed entries.

given smiles	system name	comparison sign	pIC50
Cc1cccc(C[C@H](NC(=O)c2cc(C(C)(C)C)nn2C)C(=O)NCC#N)c1	UniProtKB P07858	=	5.40
Cn1nc(C(C)(C)C)cc1C(=O)N[C@@H](Cc1cccc(Cl)c1)C(=O)NCC#N	UniProtKB P07858	=	5.20
Cn1cc(-c2cccc(C[C@H](NC(=O)c3ccccc3)C(=O)NCC#N)c2)cn1	UniProtKB P07858	=	5.20
N#CCNC(=O)[C@H](Cc1cccc(-c2ccnnc2)c1)NC(=O)c1ccccc1	UniProtKB P07858	<	5.00
N#CCNC(=O)[C@H](Cc1cccc(-c2cncnc2)c1)NC(=O)c1ccccc1	UniProtKB P07858	<	5.00
COCc1nnc(-c2cccc(C[C@H](NC(=O)c3cc(C(C)(C)C)nn3C)C(=O)NCC#N)c2)o1	UniProtKB P07858	<	5.00
Cn1nc(C(C)(C)C)cc1C(=O)N[C@@H](Cc1cccc(-c2nnc(CCN)o2)c1)C(=O)NCC#N	UniProtKB P07858	=	5.20
N#CCNC(=O)[C@H](Cc1cccc(-c2ccn[nH]2)c1)NC(=O)c1ccccc1	UniProtKB P07858	=	5.30
Cn1nc(C(C)(C)C)cc1C(=O)N[C@@H](Cc1cccc(-c2nnc(CN)o2)c1)C(=O)NCC#N	UniProtKB P07858	=	5.40
Cn1nc(C(C)(C)C)cc1C(=O)N[C@@H](Cc1cccc(-c2nncs2)c1)C(=O)NCC#N	UniProtKB P07858	<	5.00

###

pIC50: −log10 of the molar value.
Record set of pIC50 for target or system Procathepsin L (Homo sapiens, UniProt P07711).

given smiles	comparison sign	pIC50
N#CCNC(=O)[C@H](Cc1cccc(Cl)c1)NC(=O)c1ccccc1	=	6.60
Cn1nc(C(C)(C)C)cc1C(=O)N[C@@H](Cc1cccc(Cl)c1)C(=O)NCC#N	=	7.90
N#CCNC(=O)[C@H](Cc1cccc(-c2cncnc2)c1)NC(=O)c1ccccc1	=	5.40
N#CCNC(=O)[C@H](Cc1cccc(-c2ccnnc2)c1)NC(=O)c1ccccc1	<	5.10
Cn1nc(C(C)(C)C)cc1C(=O)N[C@@H](Cc1cccc(-c2nncs2)c1)C(=O)NCC#N	=	8.30

Origin of the recorded values: ChEMBL document CHEMBL1153482
